The reported measurements were obtained from ChEMBL document CHEMBL5291721.

Reported AC50 values, UniProt P34969.
Sequence (P34969 whole entry): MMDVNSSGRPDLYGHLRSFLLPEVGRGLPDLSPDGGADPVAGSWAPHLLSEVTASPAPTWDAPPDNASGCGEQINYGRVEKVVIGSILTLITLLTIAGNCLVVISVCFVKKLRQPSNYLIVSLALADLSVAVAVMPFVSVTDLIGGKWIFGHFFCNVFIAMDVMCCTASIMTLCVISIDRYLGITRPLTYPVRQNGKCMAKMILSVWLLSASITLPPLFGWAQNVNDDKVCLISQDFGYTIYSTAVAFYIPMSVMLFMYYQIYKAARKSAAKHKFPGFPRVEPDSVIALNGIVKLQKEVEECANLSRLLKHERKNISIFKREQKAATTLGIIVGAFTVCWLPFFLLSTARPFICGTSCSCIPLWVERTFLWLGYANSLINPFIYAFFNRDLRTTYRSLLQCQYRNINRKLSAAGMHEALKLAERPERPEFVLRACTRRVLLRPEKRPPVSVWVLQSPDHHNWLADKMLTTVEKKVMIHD

-- ask Form field: reported AC50 of CC(O)(CS(=O)(=O)c1ccc(F)cc1)C(=O)Nc1ccc(C#N)c(C(F)(F)F)c1 (centres undefined) [BICALUTAMIDE]
-- reply > 10 µM

-- ask Can you check CN(CCOc1ccc(CC2SC(=O)NC2=O)cc1)c1ccccn1 (centres undefined) [ROSIGLITAZONE] next?
-- reply > 10 µM

-- ask Note, next up: O=C(O)Cc1ccccc1Nc1c(Cl)cccc1Cl [DICLOFENAC]
-- reply > 10 µM

-- ask Thanks! And Cc1ccnc2c1NC(=O)c1cccnc1N2C1CC1 [NEVIRAPINE] ?
-- reply > 10 µM

-- ask Then this molecule: `CCOc1nc2cccc(C(=O)O)c2n1Cc1ccc(-c2ccccc2-c2nnn[nH]2)cc1`
-- reply > 10 µM

API: the following record is the query input.
-- ask Recorded AC50 of CCCCOc1ccc(C(=O)CCN2CCCCC2)cc1 [DYCLONINE] , please.
-- reply > 10 µM

----------
# study_target: Muscarinic acetylcholine receptor M2 (Homo sapiens); also: assay procedure not described here
# Sequence (P08172 whole entry): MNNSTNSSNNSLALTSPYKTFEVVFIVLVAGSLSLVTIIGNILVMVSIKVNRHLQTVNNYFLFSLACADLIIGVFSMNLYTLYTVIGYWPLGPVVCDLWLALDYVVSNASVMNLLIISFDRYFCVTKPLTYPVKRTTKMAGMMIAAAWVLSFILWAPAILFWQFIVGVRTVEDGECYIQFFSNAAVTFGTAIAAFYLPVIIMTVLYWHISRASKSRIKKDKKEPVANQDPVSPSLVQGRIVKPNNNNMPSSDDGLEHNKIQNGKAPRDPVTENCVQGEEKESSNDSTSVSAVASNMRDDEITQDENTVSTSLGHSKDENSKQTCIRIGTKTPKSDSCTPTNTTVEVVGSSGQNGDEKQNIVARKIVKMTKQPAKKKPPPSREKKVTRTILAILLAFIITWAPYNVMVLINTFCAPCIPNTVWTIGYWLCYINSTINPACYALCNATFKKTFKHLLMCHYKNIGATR
# Format: functional, cell-based
AC50 listing for selected compounds.

Here is how some compounds turned out for AC50.
-- ask Give AC50 (Muscarinic acetylcholine receptor M2 (Homo sapiens)) of the following compound: `Cc1nc(Nc2ncc(C(=O)Nc3c(C)cccc3Cl)s2)cc(N2CCN(CCO)CC2)n1`
-- reply > 30 µM

-- ask And the next one, `C=C1c2cccc(O)c2C(=O)C2=C(O)[C@]3(O)C(=O)C(C(N)=O)=C(O)[C@@H](N(C)C)[C@@H]3[C@@H](O)[C@H]12` ?
-- reply > 10 µM

-- ask What do you have for CN1Cc2c(N)cccc2C(c2ccccc2)C1 (stereo not drawn) ?
-- reply > 30 µM

-- ask Now this one: `CCOc1cc([C@@H](CS(C)(=O)=O)N2C(=O)c3cccc(NC(C)=O)c3C2=O)ccc1OC`
-- reply > 30 µM

Continuing:
-- ask What value of AC50 on Muscarinic acetylcholine receptor M2 (Homo sapiens) does `Clc1ccc(Cn2c(CN3CCCC3)nc3ccccc32)cc1` have?
-- reply > 10 µM

-- ask Okay, and `C=CC[N+]1([C@H]2C[C@H]3[C@@H]4CC[C@H]5C[C@H](O)[C@@H](N6CCOCC6)C[C@]5(C)[C@H]4CC[C@]3(C)[C@H]2OC(C)=O)CCCC1` ?
-- reply > 30 µM

-- ask Quick one: `COc1ccc(C2C(=O)c3ccccc3C2=O)cc1`
-- reply > 10 µM

-- ask Follow-up item: `CN(C)Cc1nnc2n1-c1ccc(Cl)cc1C(c1ccccc1)=NC2`
-- reply > 10 µM

----------
Where a SMILES comes first, the peptide text is derived from it. [ ]: non-standard residue; d: D form. pGlu = O=C1CC[C@@H](C(=O)O)N1; Thz = O=C(O)[C@@H]1CSCN1
Observed AC50 values for UniProt Q99808 are listed in what follows.
Sequence (Q99808 whole entry): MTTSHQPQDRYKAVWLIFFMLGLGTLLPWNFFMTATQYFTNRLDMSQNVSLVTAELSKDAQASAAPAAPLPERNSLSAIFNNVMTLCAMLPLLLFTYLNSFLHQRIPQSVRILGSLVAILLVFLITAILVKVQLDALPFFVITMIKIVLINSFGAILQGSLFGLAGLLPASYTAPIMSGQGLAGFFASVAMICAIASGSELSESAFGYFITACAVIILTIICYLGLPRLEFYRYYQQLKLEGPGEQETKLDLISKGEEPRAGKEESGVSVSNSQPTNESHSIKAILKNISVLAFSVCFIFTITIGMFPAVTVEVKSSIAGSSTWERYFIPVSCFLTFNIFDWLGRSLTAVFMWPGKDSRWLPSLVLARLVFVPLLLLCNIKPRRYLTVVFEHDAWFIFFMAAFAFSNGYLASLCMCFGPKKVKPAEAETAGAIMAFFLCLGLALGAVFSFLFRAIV

Answered examples (6):
-- ask AC50 for Clc1ccc(Cn2c(CN3CCCC3)nc3ccccc32)cc1 [CLEMIZOLE] ?
-- reply > 30 µM

-- ask Moving on to O=C1Nc2ccc(Cl)cc2C(c2ccccc2Cl)=NC1O (centres undefined) [LORAZEPAM]
-- reply > 30 µM

-- ask Similarly, O=C1c2ccccc2C(=O)C1c1ccccc1 [PHENINDIONE] ?
-- reply > 10 µM

-- ask Could you do the same for Cc1ccccc1N1C(=O)c2cc(S(N)(=O)=O)c(Cl)cc2NC1C (centres undefined) [METOLAZONE] , please?
-- reply > 10 µM

-- ask One more molecule: O=C1CC[C@@H](C(=O)N2CSC[C@H]2C(=O)O)N1 [PIDOTIMOD] ([pGlu]-[Thz]-OH)
-- reply > 30 µM

-- ask And the next one, CC[C@@H](CO)NC(=O)[C@@H]1C=C2c3cccc4c3c(cn4C)C[C@H]2N(C)C1 [METHYSERGIDE] ?
-- reply > 30 µM

Others:
-- ask // returns reported AC50 for input CC(C)(O/N=C(\C(=O)N[C@@H]1C(=O)N2C(C(=O)[O-])=C(C[n+]3ccccc3)CS[C@H]12)c1csc(N)n1)C(=O)O [CEFTAZIDIME]
-- reply > 300 µM

-- ask NNC(=O)c1ccncc1 [ISONIAZID] , same question.
-- reply > 30 µM

-- ask Again, but for S=P(N1CC1)(N1CC1)N1CC1 [THIOTEPA]
-- reply > 30 µM

----------
Below is a list of entries, each paired with its recorded AC50 value.
# study_target: cGMP-inhibited 3',5'-cyclic phosphodiesterase 3A (Homo sapiens); also: assay procedure not described here
# Sequence (Q14432 whole entry): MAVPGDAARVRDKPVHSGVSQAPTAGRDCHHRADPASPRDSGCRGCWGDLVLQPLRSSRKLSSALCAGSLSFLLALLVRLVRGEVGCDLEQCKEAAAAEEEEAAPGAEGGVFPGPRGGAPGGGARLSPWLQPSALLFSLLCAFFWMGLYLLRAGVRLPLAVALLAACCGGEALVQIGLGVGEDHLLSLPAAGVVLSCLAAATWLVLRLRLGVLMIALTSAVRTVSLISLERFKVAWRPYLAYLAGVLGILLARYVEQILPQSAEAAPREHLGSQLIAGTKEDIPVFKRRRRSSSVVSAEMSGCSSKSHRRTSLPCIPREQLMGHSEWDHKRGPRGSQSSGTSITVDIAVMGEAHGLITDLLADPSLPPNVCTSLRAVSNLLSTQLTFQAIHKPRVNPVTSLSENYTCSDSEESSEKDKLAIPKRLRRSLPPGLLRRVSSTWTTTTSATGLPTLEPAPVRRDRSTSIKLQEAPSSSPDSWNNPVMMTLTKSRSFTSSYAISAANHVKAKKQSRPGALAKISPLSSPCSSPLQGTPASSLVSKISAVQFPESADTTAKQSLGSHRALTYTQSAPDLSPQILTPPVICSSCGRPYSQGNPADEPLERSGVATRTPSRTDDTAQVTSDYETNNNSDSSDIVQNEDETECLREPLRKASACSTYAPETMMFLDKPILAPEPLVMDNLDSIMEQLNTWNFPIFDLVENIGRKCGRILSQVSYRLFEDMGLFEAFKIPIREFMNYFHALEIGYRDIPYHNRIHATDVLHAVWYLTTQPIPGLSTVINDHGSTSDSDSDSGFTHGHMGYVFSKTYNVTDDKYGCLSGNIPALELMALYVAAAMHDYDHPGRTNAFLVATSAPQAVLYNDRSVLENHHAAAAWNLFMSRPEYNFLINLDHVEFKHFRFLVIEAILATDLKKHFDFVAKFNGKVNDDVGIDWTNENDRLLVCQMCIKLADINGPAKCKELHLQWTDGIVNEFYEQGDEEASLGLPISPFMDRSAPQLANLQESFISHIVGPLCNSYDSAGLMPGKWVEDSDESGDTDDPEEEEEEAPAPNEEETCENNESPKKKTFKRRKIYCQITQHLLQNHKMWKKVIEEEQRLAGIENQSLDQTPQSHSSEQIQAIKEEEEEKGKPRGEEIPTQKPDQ
# Type: functional

Would you please look over these solved cases?
-- ask Name the reported AC50 value associated with the compound CC(c1cc2ccccc2s1)N(O)C(N)=O (stereo not given)
-- reply > 30 µM

-- ask Record: `O=C1c2ccccc2C(=O)C1c1ccccc1`
-- reply > 30 µM

-- ask Input CCC(NC(C)C)C(O)c1ccc(O)c2[nH]c(=O)ccc12 (stereo not given)
-- reply > 30 µM

-- ask Would you kindly repeat that for `Oc1cc(O)c(Cl)cn1` ?
-- reply > 30 µM

-- ask Cool, now `CC(C)NC[C@H](O)COc1ccc(CC(N)=O)cc1`
-- reply > 10 µM

Further cases:
-- ask Consider the compound shown here: CCOC(=O)C(C)(C)Oc1ccc(Cl)cc1 [CLOFIBRATE] What is its recorded AC50?
-- reply > 30 µM

-- ask # repeat for `CCOC(=O)c1ccc(C#Cc2ccc3c(c2)C(C)(C)CCS3)nc1`
-- reply > 30 µM

-- ask Same again, this time with `CCCCCCCC(=O)CC[C@@H]1[C@@H](C/C=C\CCCC(=O)OC(C)C)[C@@H](O)C[C@H]1O`
-- reply > 30 µM

-- ask Moving on to the next compound: Clc1ccc(CCC(Cn2ccnc2)Sc2c(Cl)cccc2Cl)cc1 (stereo not given)
-- reply > 30 µM

-- ask Next entry: `COc1cc(C(=O)NS(=O)(=O)c2ccccc2C)ccc1Cc1cn(C)c2ccc(NC(=O)OC3CCCC3)cc12`
-- reply 14 µM

----------
AC50 data for Histamine H2 receptor (Homo sapiens, UniProt P25021) follow.

Worked cases, AC50 given:
-- ask Returns the measured AC50 for the input compound. Input: O=C1Cc2cc(CCN3CCN(c4nsc5ccccc45)CC3)c(Cl)cc2N1 [ZIPRASIDONE]
-- reply 596 nM

-- ask # iterate: CC[C@H](C)C(=O)O[C@H]1C[C@@H](C)C=C2C=C[C@H](C)[C@H](CC[C@@H]3C[C@@H](O)CC(=O)O3)[C@H]21 [LOVASTATIN]
-- reply > 10000 nM

-- ask Then CN(C)CCCN1c2ccccc2CCc2ccccc21 [IMIPRAMINE] ?
-- reply 69.7 nM

-- ask Okay, and O=C1Nc2ccc(Cl)cc2C(c2ccccc2Cl)=NC1O (stereo not drawn) [LORAZEPAM] ?
-- reply > 10000 nM

-- ask Ok, now CN(CCOc1ccc(CC2SC(=O)NC2=O)cc1)c1ccccn1 (stereo not drawn) [ROSIGLITAZONE]
-- reply > 10000 nM

-- ask Would you mind doing CC(CN1c2ccccc2Sc2ccccc21)N(C)C (stereo not drawn) [PROMETHAZINE] as well?
-- reply 53.6 nM

***
-- ask Dear colleague, I am looking for the recorded AC50 of the following compound: CC(O)(CS(=O)(=O)c1ccc(F)cc1)C(=O)Nc1ccc(C#N)c(C(F)(F)F)c1 (stereo not drawn) [BICALUTAMIDE]
-- reply > 10000 nM

-- ask Now the same for C[C@@H]1C[C@H]2[C@@H]3C[C@H](F)C4=CC(=O)C=C[C@]4(C)[C@@]3(F)[C@@H](O)C[C@]2(C)[C@@]1(OC(=O)c1ccco1)C(=O)SCF [FLUTICASONE FUROATE]
-- reply > 10000 nM

----------
# study_target: Histamine H1 receptor (Homo sapiens); also: assay procedure not described here
# Sequence (P35367 whole entry): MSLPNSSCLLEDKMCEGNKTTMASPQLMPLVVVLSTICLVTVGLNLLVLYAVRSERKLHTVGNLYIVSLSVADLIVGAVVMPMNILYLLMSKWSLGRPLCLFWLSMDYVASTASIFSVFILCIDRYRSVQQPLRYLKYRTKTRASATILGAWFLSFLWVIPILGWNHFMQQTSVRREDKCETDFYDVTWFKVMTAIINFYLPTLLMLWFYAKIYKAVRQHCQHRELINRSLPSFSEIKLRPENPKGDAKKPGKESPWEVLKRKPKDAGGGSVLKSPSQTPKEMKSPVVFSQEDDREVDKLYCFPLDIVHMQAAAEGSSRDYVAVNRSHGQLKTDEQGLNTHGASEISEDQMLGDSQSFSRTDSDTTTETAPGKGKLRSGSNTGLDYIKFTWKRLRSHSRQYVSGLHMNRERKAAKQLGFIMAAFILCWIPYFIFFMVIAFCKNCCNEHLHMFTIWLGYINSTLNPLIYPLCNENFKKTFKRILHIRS
# Assay type: functional, cell-based
reported_property: AC50

Some entries whose results are on file:
-- ask What does the record list as AC50 for OC[C@H]1O[C@@H](n2cnc3c2NC=NC[C@H]3O)C[C@@H]1O [PENTOSTATIN] ?
-- reply > 30 µM

-- ask Then COc1cc(C(=O)OCc2cccc(COC(=O)c3cc(OC)c(OC)c(OC)c3)n2)cc(OC)c1OC [PIROZADIL] ?
-- reply > 30 µM

-- ask Please do the same for O=C(NCCO[N+](=O)[O-])c1cccnc1 [NICORANDIL] as well.
-- reply > 30 µM

---
-- ask Consider the compound shown here: CCN1CCCC1CNC(=O)c1cc(S(=O)(=O)CC)ccc1OC (stereo not drawn) [SULTOPRIDE] What is its recorded AC50?
-- reply > 30 µM

-- ask # iterate: O=c1[nH]c2ccccc2n1CCCN1CCN(C(c2ccccc2)c2ccccc2)CC1 [OXATOMIDE]
-- reply 0.69 µM

-- ask Now give it for O=C1OC(OC(=O)c2cccnc2Nc2cccc(C(F)(F)F)c2)c2ccccc21 (stereo not drawn) [TALNIFLUMATE] too.
-- reply > 30 µM

-- ask Check O=S1(=O)CCN(CN2CCS(=O)(=O)NC2)CN1 [TAUROLIDINE] too.
-- reply > 30 µM

-- ask Input COc1cc2[nH]c(C)c(CCN3CCN(c4ccccc4)CC3)c2cc1OC [OXYPERTINE]
-- reply 0.645 µM
